The values you see were collected from the supplement of paper PMC13380429.

Listing of entries alongside the reported drug-induced phospholipidosis.
- Test system: A549-ACE2
- TEST PROTOCOL: drug-induced phospholipidosis relative to tamoxifen; higher = more phospholipidosis
- MEASUREMENT PARAMETERS: 0.3 µM; 72 h
Please answer using the number first and the unit second.

* NC1(Cc2ccc(Cl)cc2)CCN(c2ncnc3[nH]ccc23)CC1 | -2.31%

Would you kindly share the measured drug-induced phospholipidosis for OC1=c2ccccc2=C(NC2CCCCC2)/C1=C\c1ccccc1 ? 1.89%

----------
Listing of entries alongside the reported drug-induced phospholipidosis.
- System: A549-ACE2
- TEST PROTOCOL: drug-induced phospholipidosis relative to tamoxifen; higher = more phospholipidosis
- MEASUREMENT PARAMETERS: 0.833333 µM; 72 h
Please give a number only; it is taken to be in %.

• CN(C)c1ccc(-c2nc3c(N4CCN(CC(=O)Nc5nccs5)CC4)c(Cl)cnc3[nH]2)cc1 = -6.12
• CC(=O)[O-].CC(=O)[O-].N.NC1CCCCC1.[Cl-].[Cl-].[Pt+4] = -2.74
• CC(C)n1nc(C#Cc2ccccc2)c2c(N)ncnc21 = 0.816
• Cc1cccc(/C=N/Nc2cc(N3CCOCC3)n3nc(-c4ccncc4)cc3n2)c1 = 95
• COc1ccc(NC(=O)c2ccc(-c3ccc(-c4noc(C)n4)cc3C)cc2)cc1OCCN(C)C = 5.56
• COc1ccc2nc3c(c(N)c2c1)CCCC3 = -1.72

Would you kindly share the measured drug-induced phospholipidosis for NC1(c2ccc(-c3nc4ccn5c(=O)[nH]nc5c4cc3-c3ccccc3)cc2)CCC1 ? 14.8

----------
Listing of entries alongside the reported drug sensitivity score.
- Test system: Calu-3
- TEST PROTOCOL: drug sensitivity score (DSS) for viability; higher = more toxic; extreme values may be limits of the assay
- MEASUREMENT PARAMETERS: 72 h

Look over these answered cases.
* CC(C)N(CC[C@H](c1ccccc1)c1cc(CO)ccc1O)C(C)C [5-hydroxymethyl-tolterodine] | 0
* N=C(N)NCc1cccc(I)c1 [iobenguane] | 0
* CC(C)(Oc1ccc(C(=O)c2ccc(Cl)cc2)cc1)C(=O)O [fenofibric-acid] | 0
* COc1ccc(-c2sc(NC(=O)C(C)(C)C)nc2C)cc1S(=O)(=O)Nc1ccc(O)cc1 [PI4KIII-beta-inhibitor-1] | 2.8

// next entry
Would you kindly share the measured drug sensitivity score for Oc1ccc(Nc2nc(-c3ccc(Cl)cc3)cs2)cc1 [SKI-II] ? 0.5

----------
- Tested on: Vero E6
- TEST PROTOCOL: cell viability relative to DMSO; higher = less toxic
- MEASUREMENT PARAMETERS: 72 h; 1 nM
Listing of entries alongside the reported cell viability.
Please give a number only; it is taken to be in %.

• Cc1c(N)c(=O)n(-c2ccccc2)n1C = 101
• CC(=O)N1CCC(C(=O)N(CCCN2CCC(Cc3ccc(C(N)=O)cc3)CC2)c2ccc(C)c(Cl)c2)CC1 = 113
• CC(Cc1ccccc1)(NC(=O)CN)c1ccccc1 (stereo not drawn) [remacemide] = 99.7
• Cc1cc(-c2ccccc2)nnc1NCCN1CCOCC1 = 101
• COc1ccc(Br)cc1S(=O)(=O)NC(=O)/C=C/c1ccccc1Cc1ccc2ccccc2c1 = 96
• O=C1N=C2SCCN2C(=O)C1Cc1ccc(Cl)cc1 (stereo not drawn) = 96.9
• Cc1ccc(Cl)c(OC[C@H](O)CNC(C)C)c1 = 104
• O=C(O[C@@H]1Cc2c(O)cc(O)cc2O[C@@H]1c1cc(O)c(O)c(O)c1)c1cc(O)c(O)c(O)c1 [epigallocatechin-gallate-(-)] = 98.5

Would you kindly share the measured cell viability for CN(C)CCCN1c2ccccc2Sc2ccc(Cl)cc21 ? 98.5

Would you kindly share the measured cell viability for CCCCNc1ncc2c(-c3ccc(CN4CCN(C)CC4)cc3)cn([C@H]3CC[C@H](O)CC3)c2n1 ? 95.3

Would you kindly share the measured cell viability for CCS(=O)(=O)N(C)[C@@H]1c2cc(C#N)ccc2OC(C)(C)[C@H]1O.CCS(=O)(=O)N(C)[C@H]1c2cc(C#N)ccc2OC(C)(C)[C@@H]1O (racemic) [chromanol-(+/-)] ? 101

----------
- System: U2OS
- TEST PROTOCOL: drug sensitivity score (DSS) for viability; higher = more toxic; extreme values may be limits of the assay
- MEASUREMENT PARAMETERS: 72 h
Listing of entries alongside the reported drug sensitivity score.
Output spec: single numeric token, no unit.

* CCCCCCCCCCCCCCCCCCN(CCCCCCCCCCCCCCCCCC)CCCN(CCO)CCO | 0

Would you kindly share the measured drug sensitivity score for CC(C)[N+](C)(CCC(C(N)=O)(c1ccccc1)c1ccccc1)C(C)C [isopropamide-iodide] ? 0

Would you kindly share the measured drug sensitivity score for COc1ccnc2[nH]cc(C(=O)C(=O)N3CCN(C(=O)c4ccccc4)C[C@H]3C)c12 ? 0

Would you kindly share the measured drug sensitivity score for O=C(Nc1cc(C(F)(F)F)cc(C(F)(F)F)c1)c1cc(Cl)ccc1O ? 7.7

----------
- System: Caco-2
- TEST PROTOCOL: cell viability relative to DMSO; higher = less toxic
- MEASUREMENT PARAMETERS: 72 h; 10 nM
REPORTED ENDPOINT: cell viability (%)
Please give a number only; it is taken to be in %.

Look over these answered cases.
* O[C@H]1CC[C@H](Nc2nc(-c3ccccc3)nc3[nH]ccc23)CC1 | 94.4
* NCCCNCCCCNCCCN | 124
* CC(C)Oc1ccc(-c2nc(-c3cccc4c3CC[C@H]4NCCC(=O)O)no2)cc1C#N | 94.7
* COc1ccc(Br)cc1S(=O)(=O)NC(=O)/C=C/c1ccccc1Cc1ccc2ccccc2c1 | 94
* Cn1cc(/C=C2\C(=O)Nc3cccnc32)c2ccccc21 | 94.4

Would you kindly share the measured cell viability for Cc1cccc(Oc2nc3c(C)cccn3c(=O)c2/C=C(\C#N)c2nc3ccccc3s2)c1 ? 98.3

----------
- Test system: U2OS
- TEST PROTOCOL: cell viability relative to DMSO; higher = less toxic
- MEASUREMENT PARAMETERS: 72 h; 1000 nM
REPORTED ENDPOINT: cell viability (%)
Please give a number only; it is taken to be in %.

Look over these answered cases.
- c1ccc([C@H]2CNCc3ccccc32)cc1 [4-phenyl-1,2,3,4-tetrahydroisoquinoline]: 94.9
- CS[C@H]1SC[C@H]2C(=O)N(C)[C@@H](C(C)C)C(=O)OC[C@@H](NC(=O)c3cnc4ccccc4n3)C(=O)N[C@@H](C)C(=O)N(C)[C@@H]1C(=O)N(C)[C@@H](C(C)C)C(=O)OC[C@@H](NC(=O)c1cnc3ccccc3n1)C(=O)N[C@@H](C)C(=O)N2C [echinomycin]: 2.3
- COC(=O)Nc1ccc(-c2nc(N3CCOCC3)c3cnn(C4CCN(C(=O)OC)CC4)c3n2)cc1 [WYE-354]: 98.6

Would you kindly share the measured cell viability for O=C1CC[C@@](c2ccccc2)(C2CCN(Cc3ccc(I)cc3)CC2)C(=O)N1 [iododexetimide] ? 100

Would you kindly share the measured cell viability for NC(=O)N1c2ccccc2CC(=O)c2ccccc21 [oxcarbazepine] ? 96.7

Would you kindly share the measured cell viability for CCc1c(C(=O)NCCc2ccc(N3CCCCC3)cc2)[nH]c2ccc(Cl)cc12 ? 95.2

----------
- Test system: Caco-2
- TEST PROTOCOL: cell viability relative to DMSO; higher = less toxic
- MEASUREMENT PARAMETERS: 72 h; 10000 nM
REPORTED ENDPOINT: cell viability (%)
Please give a number only; it is taken to be in %.

Look over these answered cases.
• O=C(O)C[C@H]1CC[C@H](c2ccc(NC(=O)c3nnc(Nc4ccc(F)c(F)c4)o3)cc2)CC1 = 87.9
• CCN(CC)CCO[C@H]1CC[C@@]2(C)C(=CC[C@@H]3[C@@H]2CC[C@]2(C)C(=O)CC[C@@H]32)C1 = 51.2
• O=C(O)c1ccccc1C(=O)Nc1ccc(-c2ccccc2)cc1 = 93.7

Would you kindly share the measured cell viability for CC1CCN(CC[C@H]2CCCN2S(=O)(=O)c2cccc(O)c2)CC1 ? 102

Would you kindly share the measured cell viability for O=c1c(-c2ccc(O)cc2)coc2cc(O)cc(O)c12 ? 90.3

----------
Listing of entries alongside the reported cell viability.
- System: Caco-2
- TEST PROTOCOL: cell viability relative to DMSO; higher = less toxic
- MEASUREMENT PARAMETERS: 72 h; 1 nM
Please give a number only; it is taken to be in %.

- NC(=O)[C@H]1CCS[C@@H]2C[C@]3(CCCN3C(=O)Cc3ccc(NC(=O)COc4ccc(Cl)cc4Cl)cc3)C(=O)N12: 84.7
- CN(C(=O)Cc1ccc(Cl)c(Cl)c1)[C@H](CN1CCCC1)c1ccccc1: 96.7
- O=C(Nc1cc(C(F)(F)F)cc(C(F)(F)F)c1)c1cc(Cl)ccc1O: 95.9

Would you kindly share the measured cell viability for CC[C@@]1(O)C(=O)OCc2c1cc1n(c2=O)Cc2c-1nc1cc(F)c(C)c3c1c2[C@@H](N)CC3 [exatecan-mesylate] ? 90.7

Would you kindly share the measured cell viability for COC(=O)Nc1ccc(-c2nc(N3CCOCC3)c3cnn(C4CCN(Cc5cccnc5)CC4)c3n2)cc1 ? 93.6
